assayed_target: Human immunodeficiency virus type 1 integrase (Human immunodeficiency virus 1, UniProt Q7ZJM1)
Sequence (Q7ZJM1 whole entry): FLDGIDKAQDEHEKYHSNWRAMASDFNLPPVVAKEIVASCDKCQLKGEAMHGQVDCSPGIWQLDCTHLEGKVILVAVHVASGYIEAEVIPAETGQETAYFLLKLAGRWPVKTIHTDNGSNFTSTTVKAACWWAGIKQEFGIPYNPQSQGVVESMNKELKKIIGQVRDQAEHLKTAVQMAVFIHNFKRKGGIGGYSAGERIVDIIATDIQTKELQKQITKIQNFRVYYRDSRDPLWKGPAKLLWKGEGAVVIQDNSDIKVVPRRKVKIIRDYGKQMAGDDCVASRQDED
method: Inhibition of LEDGF/p75-dependent full length HIV-1 integrase expressed in Escherichia coli BL21(DE3) cells preincubated for 1 hr further incubated for 90 mins with biotin-labeled donor DNA and target DNA by HTRF assay
result_type: IC50 (µM)

structure_smiles_string: Cc1cc(-c2c(O)c3c(=O)oc4ccccc4c3oc2=O)nn1-c1ccccc1
result_type: IC50
display_unit: µM
censoring_operator: >
numeric_readout: 100
--
structure_smiles_string: CC(=O)CC(=O)c1c(O)c2c(=O)oc3ccccc3c2oc1=O
result_type: IC50
display_unit: µM
censoring_operator: =
numeric_readout: 42
--
structure_smiles_string: CC(=O)c1c(O)c2c(=O)oc3c(C)cccc3c2oc1=O
result_type: IC50
display_unit: µM
censoring_operator: =
numeric_readout: 18.5
--
structure_smiles_string: CC(=O)c1c(O)c2c(=O)oc3ccc(C)cc3c2oc1=O
result_type: IC50
display_unit: µM
censoring_operator: =
numeric_readout: 6.45
--
structure_smiles_string: Cc1ccc2oc(=O)c3c(O)cc(=O)oc3c2c1
result_type: IC50
display_unit: µM
censoring_operator: =
numeric_readout: 9.5
--
structure_smiles_string: O=c1cc(O)c2c(=O)oc3c4ccccc4ccc3c2o1
result_type: IC50
display_unit: µM
censoring_operator: =
numeric_readout: 7.5

---

// each record: one item and its log10 IC50 for Human immunodeficiency virus type 1 reverse transcriptase (Human immunodeficiency virus 1)
result_type: log10 IC50 (log10 of the value in µM)

structure_smiles_string: Cc1cc(=O)c2c(=O)oc3c4ccccc4oc(=O)c3c2o1
assayed_target: Human immunodeficiency virus type 1 reverse transcriptase (Human immunodeficiency virus 1)
numeric_readout: 1.23
//
structure_smiles_string: CC(=O)CC(=O)c1c(O)c2c(=O)oc3c4ccccc4ccc3c2oc1=O
assayed_target: Human immunodeficiency virus type 1 reverse transcriptase (Human immunodeficiency virus 1)
numeric_readout: 1.71
//
structure_smiles_string: CC(=O)CC(=O)c1c(O)c2c(=O)oc3ccccc3c2oc1=O
assayed_target: Human immunodeficiency virus type 1 reverse transcriptase (Human immunodeficiency virus 1)
numeric_readout: 1.93
//
structure_smiles_string: CC(=O)c1c(O)c2c(=O)oc3ccccc3c2oc1=O
assayed_target: Human immunodeficiency virus type 1 reverse transcriptase (Human immunodeficiency virus 1)
numeric_readout: 1.42
//
structure_smiles_string: CC(=O)c1c(O)c2c(=O)oc3c(C)cccc3c2oc1=O
assayed_target: Human immunodeficiency virus type 1 reverse transcriptase (Human immunodeficiency virus 1)
numeric_readout: 1.41
//
structure_smiles_string: O=c1cc(O)c2c(=O)oc3ccc4ccccc4c3c2o1
assayed_target: Human immunodeficiency virus type 1 reverse transcriptase (Human immunodeficiency virus 1)
numeric_readout: 1.79
//
structure_smiles_string: Cc1ccc2oc(=O)c3c(O)cc(=O)oc3c2c1
assayed_target: Human immunodeficiency virus type 1 reverse transcriptase (Human immunodeficiency virus 1)
numeric_readout: 1.22
//
structure_smiles_string: CC(=O)c1c(O)c2c(=O)oc3ccc(C)cc3c2oc1=O
assayed_target: Human immunodeficiency virus type 1 reverse transcriptase (Human immunodeficiency virus 1)
numeric_readout: 0.83
//
structure_smiles_string: Cc1cc(-c2c(O)c3c(=O)oc4ccccc4c3oc2=O)nn1-c1ccccc1
assayed_target: Human immunodeficiency virus type 1 reverse transcriptase (Human immunodeficiency virus 1)
numeric_readout: 1.71
//
structure_smiles_string: CC(=O)CC(=O)c1c(O)c2c(=O)oc3ccc4ccccc4c3c2oc1=O
assayed_target: Human immunodeficiency virus type 1 reverse transcriptase (Human immunodeficiency virus 1)
numeric_readout: 1.14
//
structure_smiles_string: O=c1cc(O)c2c(=O)oc3c4ccccc4ccc3c2o1
assayed_target: Human immunodeficiency virus type 1 reverse transcriptase (Human immunodeficiency virus 1)
numeric_readout: 1.39
//
structure_smiles_string: O=C(c1ccccc1)c1ccc2c(c1)N=CCC(c1c(O)c3c(=O)oc4ccccc4c3oc1=O)=N2
assayed_target: Human immunodeficiency virus type 1 reverse transcriptase (Human immunodeficiency virus 1)
numeric_readout: 1.58
//
structure_smiles_string: Cc1cccc2c1oc(=O)c1c(O)cc(=O)oc12
assayed_target: Human immunodeficiency virus type 1 reverse transcriptase (Human immunodeficiency virus 1)
numeric_readout: 1.47
//
structure_smiles_string: Cc1ccc2oc(=O)c3cc(C4=Nc5ccc(C(=O)c6ccccc6)cc5N=CC4)c(=O)oc3c2c1
assayed_target: Human immunodeficiency virus type 1 reverse transcriptase (Human immunodeficiency virus 1)
numeric_readout: 1.63

---

Here, each record is paired with measured inhibition data.
Test system: Human immunodeficiency virus 1
method: Inhibition of His-tagged HIV-1 integrase interaction with HIV-1 FLAG-tagged LEDGF/p75 expressed in Escherichia coli BL21(DE3) cells at 100 uM incubated for 30 mins followed by LEDGF addition measured after 4 hrs by HTRF assay relative to control
result_type: inhibition (%)

structure_smiles_string: CC(=O)c1c(O)c2c(=O)oc3ccc(C)cc3c2oc1=O
numeric_readout: 52

structure_smiles_string: O=C(c1ccccc1)c1ccc2c(c1)N=CCC(c1c(O)c3c(=O)oc4ccccc4c3oc1=O)=N2
numeric_readout: 81

structure_smiles_string: O=c1cc(O)c2c(=O)oc3c4ccccc4ccc3c2o1
numeric_readout: 53

structure_smiles_string: Cc1ccc2oc(=O)c3c(O)cc(=O)oc3c2c1
numeric_readout: 55

structure_smiles_string: Cc1nnc(C(=O)NC(C)(C)c2nc(C(=O)NCc3ccc(F)cc3)c(O)c(=O)n2C)o1
numeric_readout: 100

Data provenance: ChEMBL document CHEMBL4359896
